# Assay protocol: Pharmacokinetic analysis in plasma and eye fluids after oral administration
# Format: in vivo, mice
# Applied conditions: C57BL/6J, mouse; Vitreous Humor, single oral administration at 400 mg/kg, male mice; read-out: AUC0-6h
Measurement name: AUC(0-t) (ng·h/mL)
Numbers only, in ng·h/mL.

# input So what's the measured AUC(0-t) for this one? "COC1=C(OC)C(=O)C(CCCCCCCCCCO)=C(C)C1=O"
# output 38.1

----------
# Assay protocol: Pharmacokinetic analysis in plasma and eye fluids after oral administration
# Assay type: in vivo, mice
# Applied conditions: C57BL/6J, mouse; Plasma, single oral administration at 400 mg/kg, male mice
# Description: Pharmacokinetic analysis of test compounds after oral administration aims to determine its bioavailability and clearance in the plasma and in the eye fluids (aqueous and vitreous humor). The test compounds are quantified in the plasma and in the aqueous and vitreous humor after acute and repeated treatment (with different routes of administration). The time-dependent concentration is then determined and pharmacokinetic parameters (Cmax, AUC0-t, tmax) are calculated. […]
Measurement name: AUC(0-inf) (ng·h/mL)
Answers are plain numbers, in ng·h/mL.

# input So what's the measured AUC(0-inf) for this one? "COC1=C(OC)C(=O)C(CCCCCCCCCCO)=C(C)C1=O"
# output 1960
